Assay: Oral bioavailability of hydromorphone conjugates (plasma hydromorphone after oral gavage)
Details: rat, relative to hydromorphone control
Residues, ends and D or L forms follow the SMILES beside them. *: point of attachment. X5 = CC(=O)Oc1ccc2c3c1O[C@H]1C(O*)=CC[C@H]4[C@@H](C2)N(C)CC[C@]314
Measure name: Oral Cmax % (corrected value based on control HM) (%)
Express it in %; write the number only.

Some solved entries appear below for comparison.
[
  {
    "Compound": "CC[C@H](C)[C@H](NC(=O)[C@H](Cc1ccccc1)NC(=O)[C@H](Cc1ccccc1)NC(=O)[C@H](Cc1ccc(O)cc1)NC(=O)[C@@H](N)Cc1ccc(O)cc1)C(=O)OC1=CC[C@H]2[C@H]3Cc4ccc(OC(C)=O)c5c4[C@@]2(CCN3C)[C@H]1O5 [YYFFI-HM-OAc] (H-YYFFI-X5)",
    "Obs value": 40
  },
  {
    "Compound": "CC[C@H](C)[C@H](NC(=O)[C@H](Cc1ccccc1)NC(=O)[C@@H](N)Cc1ccccc1)C(=O)OC1=CC[C@H]2[C@H]3Cc4ccc(O)c5c4[C@@]2(CCN3C)[C@H]1O5 [FFI-HM]",
    "Obs value": 47
  },
  {
    "Compound": "CC(C)C[C@H](NC(=O)[C@H](CCC(=O)O)NC(=O)[C@@H](N)CCC(=O)O)C(=O)OC1=CC[C@H]2[C@H]3Cc4ccc(O)c5c4[C@@]2(CCN3C)[C@H]1O5 [EEL-HM]",
    "Obs value": 49
  }
]

Attention now turns to another entry.
For CC(C)[C@H](NC(=O)[C@H](CCCCN)NC(=O)[C@@H](N)CCCCN)C(=O)OC1=CC[C@H]2[C@H]3Cc4ccc(O)c5c4[C@@]2(CCN3C)[C@H]1O5 [KKV-HM] , what is its reported Oral Cmax % (corrected value based on control HM)?
60

====

molecules and their reported IN AUC % (corrected value based on bioavailability of control HM)
Assay: Intranasal bioavailability of hydromorphone conjugates (plasma hydromorphone after intranasal dosing)
Type: in vivo, male Sprague-Dawley rats
Details: rat, relative to hydromorphone control
Residues, ends and D or L forms follow the SMILES beside them. *: point of attachment. X2 = CN1CC[C@]23c4c5ccc(O)c4O[C@H]2C(O*)=CC[C@H]3[C@H]1C5
Express it in %; write the number only.

Some solved entries appear below for comparison.
[
  {
    "Molecule": "CC[C@H](C)[C@H](NC(=O)[C@H](Cc1ccccc1)NC(=O)[C@@H](N)Cc1ccccc1)C(=O)OC1=CC[C@H]2[C@H]3Cc4ccc(O)c5c4[C@@]2(CCN3C)[C@H]1O5",
    "Obs value": 79
  },
  {
    "Molecule": "CC(C)C[C@H](NC(=O)[C@H](Cc1ccccc1)NC(=O)[C@@H](N)Cc1ccccc1)C(=O)OC1=CC[C@H]2[C@H]3Cc4ccc(O)c5c4[C@@]2(CCN3C)[C@H]1O5",
    "Obs value": 92
  }
]

For CC(C)C[C@H](NC(=O)CNC(=O)CN)C(=O)OC1=CC[C@H]2[C@H]3Cc4ccc(O)c5c4[C@@]2(CCN3C)[C@H]1O5 , what is its reported IN AUC % (corrected value based on bioavailability of control HM)?
52

For CC(C)C[C@H](NC(=O)[C@H](Cc1ccc(O)cc1)NC(=O)[C@@H](N)Cc1ccc(O)cc1)C(=O)OC1=CC[C@H]2[C@H]3Cc4ccc(O)c5c4[C@@]2(CCN3C)[C@H]1O5 , what is its reported IN AUC % (corrected value based on bioavailability of control HM)?
74

For CC[C@H](C)[C@H](NC(=O)[C@H](Cc1ccccc1)NC(=O)[C@H](Cc1ccccc1)NC(=O)[C@H](Cc1ccc(O)cc1)NC(=O)[C@@H](N)Cc1ccc(O)cc1)C(=O)OC1=CC[C@H]2[C@H]3Cc4ccc(O)c5c4[C@@]2(CCN3C)[C@H]1O5 [YYFFI-HM] (H-YYFFI-X2) , what is its reported IN AUC % (corrected value based on bioavailability of control HM)?
4

====

Experiment: Intranasal bioavailability of hydromorphone conjugates (plasma hydromorphone after intranasal dosing)
Format: in vivo, male Sprague-Dawley rats
Details: rat, relative to hydromorphone control
Measure name: IN Cmax % (corrected value based on control HM) (%)
Express it in %; write the number only.

Some solved entries appear below for comparison.
[
  {
    "Molecule": "CC(C)[C@H](NC(=O)[C@H](CCCCN)NC(=O)[C@@H](N)CCCCN)C(=O)OC1=CC[C@H]2[C@H]3Cc4ccc(O)c5c4[C@@]2(CCN3C)[C@H]1O5 [KKV-HM]",
    "Unit info": "%",
    "Obs value": 89
  },
  {
    "Molecule": "CC[C@H](C)[C@H](NC(=O)[C@H](Cc1ccccc1)NC(=O)[C@@H](N)Cc1ccccc1)C(=O)OC1=CC[C@H]2[C@H]3Cc4ccc(O)c5c4[C@@]2(CCN3C)[C@H]1O5 [FFI-HM]",
    "Unit info": "%",
    "Obs value": 92
  }
]

Attention now turns to another entry.
For CC[C@H](C)[C@H](NC(=O)[C@H](CCC(=O)O)NC(=O)[C@@H](N)CCC(=O)O)C(=O)OC1=CC[C@H]2[C@H]3Cc4ccc(O)c5c4[C@@]2(CCN3C)[C@H]1O5 [EEI-HM] , what is its reported IN Cmax % (corrected value based on control HM)?
88

====

molecules and their reported IN AUC % (corrected value based on bioavailability of control HM)
Test: Intranasal bioavailability of hydromorphone conjugates (plasma hydromorphone after intranasal dosing)
Format: in vivo, male Sprague-Dawley rats
Settings: rat, relative to hydromorphone control
Method: Oral, and intranasal bioavailability studies of hydromorphone and hydromorphone conjugates were conducted in male Sprague-Dawley rats. […] Plasma was collected by retroorbital sinus puncture under isoflurane anesthesia. hydromorphone were determined by LC/MS/MS. […] The following Tables include Hydromorphone amino acid and peptide HCl salt conjugates that were synthesized and tested. Both oral and intranasal bioavailabilities were measured. […]
Express it in %; write the number only.

Some solved entries appear below for comparison.
[
  {
    "Entry smiles": "CC[C@H](C)[C@H](NC(=O)[C@H](CCC(=O)O)NC(=O)[C@@H](N)CCC(=O)O)C(=O)OC1=CC[C@H]2[C@H]3Cc4ccc(O)c5c4[C@@]2(CCN3C)[C@H]1O5",
    "Unit info": "%",
    "Obs value": 59
  },
  {
    "Entry smiles": "CC(C)[C@H](NC(=O)CNC(=O)CN)C(=O)OC1=CC[C@H]2[C@H]3Cc4ccc(O)c5c4[C@@]2(CCN3C)[C@H]1O5",
    "Unit info": "%",
    "Obs value": 51
  },
  {
    "Entry smiles": "CC(C)[C@H](NC(=O)[C@H](Cc1ccccc1)NC(=O)[C@@H](N)Cc1ccccc1)C(=O)OC1=CC[C@H]2[C@H]3Cc4ccc(O)c5c4[C@@]2(CCN3C)[C@H]1O5",
    "Unit info": "%",
    "Obs value": 98
  }
]

For CC(C)[C@H](NC(=O)[C@H](Cc1ccc(O)cc1)NC(=O)[C@@H](N)Cc1ccc(O)cc1)C(=O)OC1=CC[C@H]2[C@H]3Cc4ccc(O)c5c4[C@@]2(CCN3C)[C@H]1O5 , what is its reported IN AUC % (corrected value based on bioavailability of control HM)?
73

For CC(C)[C@H](NC(=O)[C@H](CCC(=O)O)NC(=O)[C@@H](N)CCC(=O)O)C(=O)OC1=CC[C@H]2[C@H]3Cc4ccc(O)c5c4[C@@]2(CCN3C)[C@H]1O5 , what is its reported IN AUC % (corrected value based on bioavailability of control HM)?
31

For CC[C@H](C)[C@H](NC(=O)[C@H](Cc1ccc(O)cc1)NC(=O)[C@@H](N)Cc1ccc(O)cc1)C(=O)OC1=CC[C@H]2[C@H]3Cc4ccc(O)c5c4[C@@]2(CCN3C)[C@H]1O5 , what is its reported IN AUC % (corrected value based on bioavailability of control HM)?
88
